TARGET_OR_SYSTEM: Non-secretory ribonuclease (Homo sapiens, UniProt P10153)
Sequence (P10153 whole entry): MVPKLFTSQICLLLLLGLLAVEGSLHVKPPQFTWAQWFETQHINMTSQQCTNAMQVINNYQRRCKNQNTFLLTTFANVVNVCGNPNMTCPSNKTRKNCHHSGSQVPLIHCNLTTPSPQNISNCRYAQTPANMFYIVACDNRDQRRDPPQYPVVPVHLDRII
MEASUREMENT_PROTOCOL: Ribonuclease Activity Assay
SETUP_CONDITIONS: 30 °C
pKi: −log10 of the molar value.
Quick rule for you: pKi at 4 or higher means yes (1), lower means no (0).

Check if pKi >= 4 (inclusive). Item: O=c1[nH]c(=O)n(Cc2cn([C@@H]3O[C@H](CO)[C@H](O)C3O)nn2)cc1F (stereo not given in full)
yes (1)

Here is the next compound: Cc1cn(Cc2cn([C@@H]3C(O)[C@H](N4C=NC5C(N)=NC=NC54)O[C@@H]3CO)nn2)c(=O)[nH]c1=O (stereo not given in full)
no (0)

Item: Cc1cn([C@@H]2O[C@H](CO)[C@H](O)C2O)c(=O)[nH]c1=O (stereo not given in full)
yes (1)

Another compound to look at: O=C(Nc1ncnc2c1ncn2[C@@H]1O[C@H](CO)[C@H](n2cc(Cn3ccc(=O)[nH]c3=O)nn2)C1O)c1ccccc1 (stereo not given in full)
no (0)

====

Would you mind telling me the reported Ki of each entry?
TARGET_OR_SYSTEM: Non-secretory ribonuclease (Homo sapiens)
MEASUREMENT_PROTOCOL: Ribonuclease Activity Assay
SETUP_CONDITIONS: 30 °C
Respond with the bare value in µM.

Item O=c1[nH]c(=O)n([C@@H]2O[C@H](CO)[C@H](O)C2O)cc1Cl (stereo partly specified) with Non-secretory ribonuclease (Homo sapiens) - Ki?
1080

Item: NC1=NC=NC2C1N=CN2[C@@H]1O[C@H](CO)[C@H](n2cc(Cn3ccc(N)nc3=O)nn2)C1O (stereo partly specified)
57.8

And the next one, NC1=NC=NC2C1N=CN2[C@@H]1O[C@H](CO)[C@H](n2cc(Cn3ccc(=O)[nH]c3=O)nn2)C1O (stereo partly specified) ?
426

Another compound to look at: O=c1[nH]c(=O)n(Cc2cn([C@@H]3O[C@H](CO)[C@H](O)C3O)nn2)cc1Cl (stereo partly specified)
454

Repeat with Cc1cn(Cc2cn([C@@H]3C(O)[C@H](n4cnc5c(NC(=O)c6ccccc6)ncnc54)O[C@@H]3CO)nn2)c(=O)[nH]c1=O (stereo partly specified)
247

How about this compound: O=c1[nH]c(=O)n([C@@H]2O[C@H](CO)[C@H](O)C2O)cc1F (stereo partly specified)
208

====

What pKi was measured for each of the following?
TARGET_OR_SYSTEM: Ribonuclease pancreatic (Bos taurus)
Sequence (P61823 whole entry): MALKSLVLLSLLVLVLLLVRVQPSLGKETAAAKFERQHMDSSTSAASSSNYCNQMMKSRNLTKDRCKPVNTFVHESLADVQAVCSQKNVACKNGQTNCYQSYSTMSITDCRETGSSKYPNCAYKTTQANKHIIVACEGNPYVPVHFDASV
Note: pKi values are expressed as the negative base-10 logarithm of concentration in M.

Can you look up the measured pKi of O=C(Nc1ncnc2c1ncn2[C@@H]1O[C@H](CO)[C@H](n2cc(Cn3ccc(=O)[nH]c3=O)nn2)C1O)c1ccccc1 (some centres not stated) for me?
4.26

Repeat with Nc1ncnc2c1ncn2Cc1cn([C@@H]2C(O)[C@H](n3ccc(=O)[nH]c3=O)O[C@@H]2CO)nn1 (some centres not stated)
3.80

====

TARGET_OR_SYSTEM: Non-secretory ribonuclease (Homo sapiens)
MEASUREMENT_PROTOCOL: Ribonuclease Activity Assay
SETUP_CONDITIONS: 30 °C
MEASUREMENT_LABEL: pIC50
// field semantics: pIC50 = negative decimal log of concentration (mol/L)

Reported pIC50, molecule O=C(Nc1ncnc2c1ncn2[C@@H]1O[C@H](CO)[C@H](n2cc(Cn3ccc(=O)[nH]c3=O)nn2)C1O)c1ccccc1 (stereo partly specified) : ____
3.39

Field entry: O=c1[nH]c(=O)n(Cc2cn([C@@H]3O[C@H](CO)[C@H](O)C3O)nn2)cc1Cl (stereo partly specified)
3.27

Same for Cc1cn([C@@H]2O[C@H](CO)[C@H](O)C2O)c(=O)[nH]c1=O (stereo partly specified)
4.48

Please do the same for Cc1cn(Cc2cn([C@@H]3C(O)[C@H](n4cnc5c(NC(=O)c6ccccc6)ncnc54)O[C@@H]3CO)nn2)c(=O)[nH]c1=O (stereo partly specified) as well.
3.42

// same read-out, input: O=c1ccn(Cc2cn([C@@H]3O[C@H](CO)[C@H](O)C3O)nn2)c(=O)[nH]1 (stereo partly specified)
3.75

Next molecule: NC1=NC=NC2C1N=CN2[C@@H]1O[C@H](CO)[C@H](n2cc(Cn3ccc(N)nc3=O)nn2)C1O (stereo partly specified)
4.05

Lookup Cc1cn(Cc2cn([C@@H]3C(O)[C@H](N4C=NC5C(N)=NC=NC54)O[C@@H]3CO)nn2)c(=O)[nH]c1=O (stereo partly specified)
3.25

One more molecule: NC1=NC=NC2C1N=CN2[C@@H]1O[C@H](CO)[C@H](n2cc(Cn3ccc(=O)[nH]c3=O)nn2)C1O (stereo partly specified)
3.19

Item: O=c1[nH]c(=O)n([C@@H]2O[C@H](CO)[C@H](O)C2O)cc1Cl (stereo partly specified)
2.83

Now this one: O=c1[nH]c(=O)n(Cc2cn([C@@H]3O[C@H](CO)[C@H](O)C3O)nn2)cc1F (stereo partly specified)
4.20

Item: O=c1[nH]c(=O)n([C@@H]2O[C@H](CO)[C@H](O)C2O)cc1F (stereo partly specified)
3.55

Data origin: BindingDB's records for doi:10.1016/j.bioorg.2015.10.007
